These measurements were taken from the supplement of paper PMC10567573.

B1: WDFY2 (parent)
chain: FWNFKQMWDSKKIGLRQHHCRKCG

Variants of: B1
Assay Notes: protein stability index of a GFP-peptide fusion (GPS, HEK-293T) (PSI 1-6); higher = more stable;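 note: lentivirally expressed fusions sorted by FACS into six bins by GFP to DsRed ratio, PSI derived from sequencing read proportions per bin multiplied by bin number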
Study Conditions: c terminus: a fixed tail appended
Measurement Name: protein stability index

Recorded results for 5 variants are shown here.
- SWNFKQMWDSKKIGLRQHHCRKCG [F1S]: 2
- FWNFKQMWDSKKIGQRQHHCRKCG [L15Q]: 1.95
- FWNFKQAWDSKKIGLRQHHCRKCG [M7A]: 2.19
- FWNFKQMWDSKKIGLRQHHCRKCI [G24I]: 1.51
- FWNFKYMWDSKKIGLRQHHCRKCG [Q6Y]: 1.6

**Query** Could you share which protein stability index value was measured for FWNFKQMWDSKKIGLQQHHCRKCG [R16Q] ?
**Result** 2.66

**Query** Next record, please: FWNFKQMWDSKKIGLCQHHCRKCG [R16C]
**Result** 1.59

**Query** Entry FWNFKQMWDSKKIALRQHHCRKCG [G14A] please
**Result** 1.66
